// reported melting point for each item listed

COC(=O)C(Oc1ccc(Cl)cc1)c1ccc(OCOc2ccc(Cl)cc2)cc1 (stereo not given); 64 to 65 °C
Cc1ccc(S(=O)(=O)c2c(N)c3nccn3c3nccnc23)cc1; 294 to 295 °C
COC(=O)c1cc(C(C)OC)c(C(F)(F)F)cc1N (stereo not given); 112 to 114 °C
O=C(NC1CCN(C/C=C\CC(c2ccccc2)c2ccccc2)CC1)c1ccccc1Oc1ccccc1; 91 to 94 °C
Cc1ccc(Br)c(S(=O)(=O)C(F)(F)F)c1; 69 °C

Output melting point of CS(=O)(=O)OCC(c1ccccc1)c1ccccc1 101 to 102 °C

###

property_label: melting point (°C)
Note: unit °C is implicit; provide only the numeric part.

Solved cases (3 shown):
NC(=NO)c1ccc(O)c(O)c1; 193
Nc1nc(/C(=N/OCC(=O)OC(c2ccccc2)c2ccccc2)C(=O)Sc2nc3ccccc3s2)cs1; 152
C=Cc1cccc(N)c1; 80

Let's switch to this compound now.
Output melting point of CNC(=S)C1(c2cccnc2)OCCCS1 (stereo not given) 194

###

property_label: melting point

C=C(CS(=O)CCCC)c1ccccc1 (centres undefined); 42 to 43.5 °C

Output melting point of CN(C)c1ccc(N(c2ccc(N(C)C)cc2)C2(c3ccc(N(C)C)cc3)OC(=O)c3cc(N(C)C)ccc32)cc1 (centres undefined) 86 to 92 °C

Output melting point of O=S(=O)(Cl)Cc1csc(-c2ccc(Cl)c(Cl)c2)n1 124 to 127 °C

Output melting point of O=C(O)c1ccc(CNS(=O)(=O)c2ccc(F)cc2)cc1 231 to 234 °C

###

// reported melting point for each item listed

Solved cases (10 shown):
O=C(Nc1ccc(N2CCOCC2=O)cc1)[C@H]1C[C@@H](O)CN1C(=O)/C=C/c1ccc(Cl)s1; 151 °C
O=C1c2ccc(Cl)cc2CCc2c(O)cccc21; 185 °C
O=C(O)c1cnc(N2CCN(S(=O)(=O)c3ccc4ccccc4c3)CC2)nc1; > 260 °C
CCCC(=O)c1cnc2ccccc2c1Nc1ccccc1OC; 167 to 168 °C
CC(=O)OC(C)c1ccc(-c2ccc(OCc3ccccc3)cc2)cc1 (single isomer, unassigned; (+)); 137 °C
Nc1nonc1-c1nc2ccccc2n1CC(=O)c1ccccc1; 202 to 204 °C
CCOC(=O)C(N)Cc1c(OCC)noc1C(=O)O (racemic); 159 to 161 °C
Fc1cc(C(F)(F)F)ccc1/C=C/c1nc(COc2ccc(-c3nc(Cn4ccnc4)cs3)cc2)co1; 133 to 135 °C
CCCNC(=O)Nc1cc(C(C)(C)C)c2c(c1)C(C)(C)CO2; 193 to 194 °C
COC(=O)CCc1cc2cc(C#N)ccc2o1; 91 to 92 °C

Output melting point of CC(C)Cn1c(=O)n(C)c(=O)c2cc(Cc3cccc4ccccc34)sc21 137 to 138 °C

Output melting point of NS(=O)(=O)C=C(c1ccccc1)c1ccccc1 134 to 135 °C

Output melting point of O=C1c2c(c(=O)n3nc(-c4ccccc4)cc3n2CC(=NO)c2ccccc2)CN1C1CCCCC1 > 280 °C

###

// reported melting point for each item listed

Solved cases (5 shown):
CC(C)Nc1cccnc1N1CCN(C(=O)c2ccc(C(=O)N3CCN(CCO)CC3)cc2)CC1; 148 to 149 °C
COc1nc2cc(Cl)ccc2c(=O)c2sccc12; 195 to 197 °C
COc1cc(OC)cc(-c2nc[nH]c2-c2ccc(OC)c(N)c2F)c1; 118 to 120 °C
O=S1CCN(c2nc(N3CCNCC3)cc3c(Cl)cccc23)CC1; 215 to 217 °C
Nc1ccc(N2CCN(CCC3(Cc4ccc(F)cc4)OCCO3)CC2)nc1N; 118 to 119 °C

Output melting point of C=C(C)C(=O)OCCCCCCCCCCCOC(=O)c1cc(OC(=O)c2ccc(/C=C/C(=O)OC)cc2)ccc1O 51 °C

Output melting point of O=C1NC(c2ccccc2)(c2ccccc2)C(=O)N1CCl 161 to 162 °C

Output melting point of FC(F)(F)c1ccc2nnc(-c3cccc(Cl)c3Cl)n2c1 100 to 101 °C

Output melting point of COc1ccc2nc(NC(=O)C(CC3CCCC3)c3ccc(S(=O)(=O)N(C(C)C)C(C)C)cc3)sc2n1 (centres undefined) 83 to 85 °C

###

property_label: melting point

Solved cases (5 shown):
Cc1cc(C)c2c(c1)c(-c1ccccc1Cl)c(NC(=O)Nc1ccc(F)cc1F)c(=O)n2C; 225 to 227 °C
Cc1oc(-c2ccccc2)nc1COc1ccc(C=O)cc1; 103 to 105 °C
COc1cccc(CNc2nccc(-c3cc(N4CCN(CCCN5CCCC5)CC4)c4cc(OC)ccc4c3)n2)c1; 160 to 167 °C
O=c1[nH][nH]c(=O)c2c(O)c3c(Cl)c(Cl)c(Cl)cc3nc12; 123 to 124 °C
CC(C)(C)NC(=O)c1nn(-c2cc(F)c(F)cc2F)c2c1C1CCC2C1 (centres undefined); 127 to 130 °C

Output melting point of O=C(O)c1nc2cc(O)c(O)cc2nc1C(=O)O > 300 °C

Output melting point of C[C@H](Cc1c[nH]c2c(OCc3ccccc3)cccc12)NC(=O)OC(C)(C)C 94 to 95 °C

Output melting point of Cc1nc2ccccc2c(=O)n1-c1nnn[nH]1 225 to 226 °C

Output melting point of CCOC(=O)C1=C(C)Nc2nccn2C1C (centres undefined) 185 to 186 °C

Output melting point of Cc1cc(C(O)(c2ccc(OC(F)(F)F)cc2)C(F)(F)F)ccc1N (centres undefined) 127 to 128 °C

Output melting point of O=C1C(Cc2ccccc2)N(c2ccc(Oc3ccccc3)cc2)C(=S)N1c1ccccc1 (centres undefined) 130 °C

Output melting point of CNC(=C[N+](=O)[O-])NCc1ccc2c(c1)Nc1nccnc1S2 > 265 °C

###

// reported melting point for each item listed

CCN1C(=O)N(c2cc(OC)cc(OC)c2)Cc2cnc(S(C)=O)nc21 (stereo unspecified); 167 to 169 °C

Output melting point of COc1nc(OC)nc(N(C)C(=O)Oc2ccccc2)n1 90 °C

Output melting point of COc1cc2c(cc1OC)CN(CC(=O)Nc1ccc(N)cc1)CC2 185 °C

Output melting point of Cc1cn(C2CC(O)C(COC(=O)Oc3ccc([N+](=O)[O-])cc3)O2)c(=O)[nH]c1=O (stereo unspecified) 145 to 146 °C

Output melting point of CC(C)(C)OC(=O)N1CCN(CC(O)COc2ccc(CC#N)cc2)CC1 (stereo unspecified) 98 to 100 °C

Output melting point of CSC(SC)=C(C#N)C(=O)NC1CCCCC1 103 to 105 °C

Output melting point of CCOC(=O)C1(C(=O)OCC)NC(=O)CC1c1ccccc1 (stereo unspecified) 97 to 99 °C

Output melting point of CCCSc1nc(Sc2ccc(OC)cc2)c(C(=O)O)n1Cc1cc2c(cc1Cl)OCO2 164 °C

Output melting point of Cc1oc(-c2ccccc2)nc1COc1ccc2c(-c3ccccc3)c(COc3nn(-c4ccccc4)cc3CO)oc2c1 118 to 119 °C

Output melting point of COc1cc(Nc2nc(N3CCOCC3)nc(-n3c(C(F)F)nc4c(OC)cccc43)n2)ncn1 256 to 259 °C

Output melting point of COc1ccc(C2CC(=O)CC(c3ccc(OC)cc3)N2C)cc1 (stereo unspecified) 129 to 130 °C

Output melting point of C[C@@H](NC(=O)c1nc(-c2ccc(Cl)cc2)ns1)[C@](O)(Cn1cncn1)c1ccc(F)cc1F 215 to 220 °C

Output melting point of CCCCCCCCCCCCCCCCOCC(O)CN(CC(O)COCC(O)CO)C(=O)CCCCCCCCCCCCCCC (stereo unspecified) 78.2 to 79 °C

Output melting point of CCCCCCCCCCCCCCC(=O)Nc1ccn(C2OC(CO)C(O)C2O)c(=O)n1 (stereo unspecified) 142 to 145 °C

Output melting point of Cc1ccc(C2CCN(C(=O)Nc3ccc4nc(CN5CCCC5)ccc4c3)CC2)cc1 214 to 216 °C

Output melting point of O=C1CC2CCSc3sc(CCO)cc3C2=NN1 (stereo unspecified) 165 to 167 °C

###

property_label: melting point

Output melting point of CCOC(=O)NC(=O)C(=NNc1cc(Cl)c(C(C)(C)C#N)c(Cl)c1)C(=O)NC(=O)OCC 212 °C

Output melting point of CC(=O)ON1Cc2ccccc2C1=O 69 to 71 °C

Output melting point of COC(=O)c1ccc(Cn2nc(C(C)(C)C)cc2C(C)(C)C)cc1 135 to 136 °C

Output melting point of Oc1ccccc1-c1nc(-c2ccccc2O)n(Cc2ccccc2)n1 166 to 168 °C

Output melting point of O=C(c1cc2ccccc2[nH]1)C1CSC(c2cccnc2)N1 (stereo unspecified) 142 to 144 °C

Output melting point of Cn1cnc2nc(-c3cc(Cl)c(Cl)cc3C(=O)O)nn2c1=S 298 to 300 °C

Output melting point of CN(C)c1ccc(N=Nc2ccccc2C(=O)NCCNC(=O)CI)cc1 140 to 142 °C

Output melting point of COc1cc(CCNC(=O)[C@@H](NS(C)(=O)=O)C(C)C)ccc1OCC#Cc1ccccc1 130 to 132 °C
